Assay: small-molecule binders of probe aLefty1, primary screen, biochemical, small-molecule microarray, 635/667 nm fluorescence (AID 1153);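 also: score merges spot fluorescence with signal-to-noise ratio from the scanned slide images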
Conditions: higher = more signal
Parameter composite z-score: see the listing below.
TEST_READOUT: composite z-score

INSERT INTO assay_data (compound, test_readout, obs_value) VALUES
  ('CCCCN1CC=CC23O[C@@H]4/C=C\CCC(C)OC(=O)C4[C@H]2C(=O)N(CCCCCCO)[C@@H]3C1=O (some centres undefined)', 'composite z-score', -0.145),
  ('Cc1c(NC(=O)/C(C#N)=C/C=C/c2ccc(N(C)C)cc2)c(=O)n(-c2ccccc2)n1C', 'composite z-score', 0.628),
  ('COc1ccc(NC(=O)O[C@H]2[C@H](OC(=O)Nc3ccc4c(c3)OCO4)[C@@H](OC(=O)Nc3ccc4c(c3)OCO4)[C@@H](OC)O[C@@H]2CO)cc1', 'composite z-score', 0.33),
  ('C=C(CCCC)/C(=C/C[C@@H](OC(C)=O)c1ccc(CO)o1)c1cc(C(=O)OC)ccc1OC', 'composite z-score', -0.0011),
  ('CN(C)CCCNC(=O)[C@@H]1c2ccccc2C(=O)N(Cc2ccc(OC(F)(F)F)cc2)[C@H]1c1ccc(CO)cc1', 'composite z-score', 0.197),
  ('O=C1NCC(=O)N2[C@@H]1C[C@@H](C(=O)O)[C@H]2c1ccc(O)cc1', 'composite z-score', 0.138),
  ('CC=CC(O)C1C=CC2C(=O)N(C)C(=O)C2N1N1CCCCC1 (centres undefined)', 'composite z-score', -0.0359),
  ('O=C1OCC=C[C@H]2OC34C=CCN(Cn5nnc6ccccc65)C(=O)[C@H]3N(CCCCCCO)C(=O)[C@@H]4[C@@H]12 (some centres undefined)', 'composite z-score', 0.32),
  ('C=C(C(=O)CC[C@H](OC(C)=O)c1cccc(OCCO)c1)C(C)C', 'composite z-score', -0.283),
  ('CCCCN1CC=CC23O[C@@H]4C=CCOC(=O)[C@@H]4[C@H]2C(=O)N(CCCO)[C@@H]3C1=O (some centres undefined)', 'composite z-score', -0.0075),
  ('[N-]=[N+]=NCc1ccccc1C[C@@]1(C(=O)NCCN2CCOCC2)N=C(c2ccc(OCCCO)cc2)O[C@@H]1c1ccccc1N=[N+]=[N-]', 'composite z-score', 0.534),
  ('O=C1O[C@@H](c2ccccc2)[C@@H](c2ccccc2)N2[C@@H](c3ccccc3OCCO)[C@]3(C(=O)Nc4ccc(C#CCCO)cc43)[C@@H](C(=O)N3CCN(c4ncccn4)CC3)[C@H]12', 'composite z-score', 0.0927),
  ('CC(C)C(O)C1C=CC2C(=O)N(C)C(=O)C2N1N(c1ccccc1)c1ccccc1 (centres undefined)', 'composite z-score', 0.213),
  ('C[C@@H](OCc1ccccc1)C1NC(=O)[C@@]23C(=O)N[C@@H](Cc4ccccc4)C2[C@H](C)[C@@]2(C)O[C@H]2C3/C=C/C/C=C\CNC(=O)CNC1=O (some centres undefined)', 'composite z-score', -0.012),
  ('COCC(=C=CC[C@H](O)c1cccc(OCCO)c1)C[C@H](O)c1ccccn1', 'composite z-score', -0.198),
  ('COc1ccc([Si](C)(C)[C@H]2[C@H](CC(=O)N3Cc4ccccc4C[C@H]3CO)O[C@@]3(C(=O)N(Cc4cccc(N5CCCCC5=O)c4)c4ccccc43)[C@@H]2C)cc1', 'composite z-score', 0.0391),
  ('CCC[C@@H]1C[C@@]1(CCC)[C@@H](NP(=O)(c1ccccc1)c1ccccc1)c1ccc(Cl)cc1', 'composite z-score', 0.0315),
  ('CCOC(=O)C[C@H]1[C@H](OC(=O)Cc2ccc3c(c2)OCO3)[C@@H](NC(=O)Cc2ccc(OC)cc2)c2cc(OCCCO)ccc2N1C(=O)c1ccccc1', 'composite z-score', 0.0903),
  ('COCCOC(=O)N1C(=O)[C@@]2(c3cc(C#CC4=CCCCC4)ccc31)[C@H](C(=O)N1CCN(c3ncccn3)CC1)[C@H]1C(=O)O[C@H](c3ccccc3)[C@H](c3ccccc3)N1[C@@H]2c1ccc(O)cc1', 'composite z-score', 0.315),
  ('COC(=O)[C@@]1(Cc2ccc(OC)cc2)[C@H]2c3cc(C(=O)N(C)C)n(CCc4c[nH]c5ccc(O)cc45)c3C[C@H]2CN1C(=O)c1ccccc1', 'composite z-score', 0.825),
  ('C#CCNC(=O)[C@H](Cc1ccccc1)NC(=O)[C@@H](N=[N+]=[N-])C(C)C', 'composite z-score', -0.145),
  ('COCCOC(=O)N1C(=O)[C@@]2(c3cc(C#CC4(O)CCCCCC4)ccc31)[C@H](c1ccccc1OCCO)N1[C@H](c3ccccc3)[C@H](c3ccccc3)OC(=O)[C@H]1[C@@H]2C(N)=O', 'composite z-score', -0.0046),
  ('NCCCCCCNC(=O)[C@@H]1C[C@@H]2C(=O)N3CCC[C@H]3C(=O)N2[C@@H]1c1ccc(O)cc1', 'composite z-score', -0.508),
  ('COC(=O)C[C@H]1O[C@]2(C(=O)N(C)c3ccccc32)[C@@H](C)[C@@H]1[Si](C)(C)c1ccc(C)cc1', 'composite z-score', -0.0789),
  ('O=C1O[C@@H](c2ccccc2)[C@@H](c2ccccc2)N2[C@@H](c3ccccc3OCCO)[C@]3(C(=O)Nc4ccccc43)[C@@H](C(=O)NC[C@H](O)c3ccccc3)[C@H]12', 'composite z-score', 0.0112),
  ('CC(C)N1CC=CC23O[C@@H]4C=CCCOC(=O)C4[C@H]2C(=O)N(CCO)[C@@H]3C1=O (some centres undefined)', 'composite z-score', -0.357),
  ('CCOC(=O)[C@H]1C/C=C/C[C@H](C(=O)OCC)C(=O)O[C@H]2[C@@H](OC)O[C@H](CO)[C@@H](OC(=O)CCc3ccccc3)[C@@H]2OC1=O', 'composite z-score', 1.63),
  ('CC1CC/C=C\[C@H]2OC34C=CCN(C(C)C)C(=O)[C@H]3N(CCCCCO)C(=O)[C@@H]4C2C(=O)O1 (some centres undefined)', 'composite z-score', -0.15),
  ('C=C(CCCC)C(=O)CC[C@@H](OC(=O)c1ccccc1-c1ccccc1C(=O)O)c1cccc(OCCO)c1', 'composite z-score', -0.168);

* * *

Parameter z-score: see the listing below.
Molecular target: Homeobox protein Hox-A13 (Mus musculus)
Assay: inhibitors of HoxA13-DNA binding, primary screen, biochemical, fluorescence polarization, labeled oligonucleotide (AID 1185)
Conditions: 15 min, higher = more signal, called active from +8 up or from −8 down
TEST_READOUT: z-score

INSERT INTO measurements (compound, test_readout, obs_value) VALUES
  ('COC(=O)[C@@]1(Cc2ccc(OC)cc2)[C@H]2c3cc(C(=O)N(C)C)n(Cc4nc5ccccc5[nH]4)c3C[C@H]2CN1C(=O)c1ccccc1', 'z-score', -3.08),
  ('COC(=O)[C@@]1(Cc2ccc(F)cc2)[C@H]2c3cc(C(=O)N4CCCC4)n(CCF)c3C[C@H]2CN1C(=O)c1ccccc1', 'z-score', -4.62),
  ('CCOC(=O)[C@H]1C/C=C/C[C@H](C(=O)OCC)C(=O)O[C@H]2[C@@H](OC)O[C@H](CO)[C@@H](OC(=O)Nc3ccc(OC)cc3)[C@@H]2OC1=O', 'z-score', -0.589),
  ('COc1ccc(NN2C(C(O)c3ccccn3)C=CC3C(=O)N(C4CCCCC4)C(=O)C32)cc1 (centres undefined)', 'z-score', -4.39);

* * *

Target: E3 ubiquitin-protein ligase XIAP (Homo sapiens)
Assay: XIAP binders, primary screen, biophysical, small-molecule microarray, fluorescence 635 nm (AID 1181);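 also: score merges 667 nm emission and signal to noise over triplicate slides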
Details: small-molecule microarray binding, higher = more signal
TEST_READOUT: composite z-score

INSERT INTO assay_data (compound, assay_system, obs_value) VALUES
  ('CCOC(=O)[C@H]1C/C=C/C[C@H](C(=O)OCC)C(=O)O[C@H]2[C@@H](OC)O[C@H](CO)[C@@H](OC(=O)CCc3ccccc3)[C@@H]2OC1=O', 'E3 ubiquitin-protein ligase XIAP (Homo sapiens)', 0.023),
  ('CCC[C@@H]1C[C@@]1(CCC)[C@@H](NP(=O)(c1ccccc1)c1ccccc1)c1ccc(Cl)cc1', 'E3 ubiquitin-protein ligase XIAP (Homo sapiens)', -0.0374),
  ('COc1ccc([Si](C)(C)[C@@H]2[C@@H](CCn3cc([C@H](O)c4ccccc4)nn3)O[C@]3(C(=O)N(Cc4ccc(N5CCOC5=O)cc4)c4ccccc43)[C@H]2C)cc1', 'E3 ubiquitin-protein ligase XIAP (Homo sapiens)', 0.049),
  ('[N-]=[N+]=NCc1ccccc1C[C@@]1(C(N)=O)N=C(c2ccc(OCCCO)cc2)O[C@@H]1c1ccccc1CN=[N+]=[N-]', 'E3 ubiquitin-protein ligase XIAP (Homo sapiens)', 0.0049),
  ('COC(=O)c1c(CC[C@@H](CO)NC(=O)N[C@H](Cn2cc(-c3ccccc3C)nn2)C(C)C)oc(C(C)=O)c1C(=O)OC', 'E3 ubiquitin-protein ligase XIAP (Homo sapiens)', 0.211),
  ('C=CCC(OC(C)=O)[C@@H]1[C@@H](N(Cc2ccc(-c3ccccc3)cc2)C(=O)c2cccc3ccccc23)c2cc(OCCCO)ccc2N1C(=O)Cc1ccc2ccccc2c1 (stereo partly specified)', 'E3 ubiquitin-protein ligase XIAP (Homo sapiens)', 0.18);
